# Test Target: HA of H3N2 A/Brisbane/10/2007 (influenza A virus)
# Test Description: cell-based or functional assay
Measurement Type: VNA titer (nM)
Field format: number, assumed nM, no unit text.

Recorded results for 3 binders are shown here.
{"Binder": "SD1070 (VHH) VHH: EVQLVESGGGLVQAGGSLRISCAASGRTFSIYSMGWFRQAPGKEREFVATIGWNSGRTFYADSMKERFTISADNARNTLYLQMNSLKFEDTAVYYCAAAKGPLRLSSQADYWGQGTQVTVSS", "VNA titer (nM)": 15.3}
{"Binder": "SD1045 (VHH) VHH: EVQLVESGGGLVQAGGSLRLSCAASGSSFSINVMGWYRQAPGKQREMVATITYGGSTNYVDSVKGRFTISRDNAKNTVYLQMNSLKPEDTAVYYCNSRLAQINYWGQGTQVTVSS", "VNA titer (nM)": 641}
{"Binder": "SD1046 (VHH) VHH: EVQLVESGGGLVQAGDSLRISCAASGRTLSIYSMGWFRQAPGKEREFVATIGWNSGRTFYPDSLKGRFTISRDNARNTLYLQMNNLRPEDTAVYYCAAAKGPLRLSSQADYWGQGTQVTVSS", "VNA titer (nM)": 6.6}

Pending binder:
Sure, the documented VNA titer for SD2020 (VHH) VHH: EVQLVESGGGLVQPGGSLRLSCAAAGGAFNRQLVAWFRQAPGKKREFVATVTTSGGSSYYADSVKGRFTISRDTAKNTVALQMNSLKAEDAAVYYCAARDSFTVAPYYPPESYAYWGQGTQVTVSS is 9.3

Taken from patent US20190359693A1.
